- System: MALME-3M melanoma
- Assay Summary: NCI tumour cell line growth inhibition, 48 h
Parameter: TGI

Compound: COc1cc(NCCCCCN=C(N)NC(N)=NC(C)C)c2ncccc2c1
Parameter: TGI
Meas Value: 1.91 µM
//
Compound: CCCCN(CCCC)CC(C(C)=O)C(c1ccccc1)c1c(O)c2ccccc2oc1=O (configuration not stated)
Parameter: TGI
Meas Value: > 100 µM
//
Compound: O=c1c2c3c(sc2nc2n1N=C(c1ccc(Br)cc1)CS2)CCCC3
Parameter: TGI
Meas Value: > 100 µM
//
Compound: COc1cc(N=Nc2ccc(OC)c(S(=O)(=O)O)c2)c(C)cc1N=Nc1ccc(/C=C/c2ccc(N=[N+]([O-])c3ccc(/C=C/c4ccc(N=Nc5cc(C)c(N=Nc6ccc(OC)c(S(=O)(=O)O)c6)cc5OC)cc4S(=O)(=O)O)c(S(=O)(=O)O)c3)cc2S(=O)(=O)O)c(S(=O)(=O)O)c1
Parameter: TGI
Meas Value: > 100 µM
//
Compound: CC/C(=C/c1ccc(OC)cc1OC)[N+](=O)[O-]
Parameter: TGI
Meas Value: 4.93 µM
//
Compound: CC(C)(C)OC(=O)Nc1ccc2c(c1)C(NC(=O)Nc1cccc(C#N)c1)CC(C)(C)O2 (configuration not stated)
Parameter: TGI
Meas Value: > 68 µM
//
Compound: CCOC(=O)c1c(-c2ccccc2)c(OC)cn1C
Parameter: TGI
Meas Value: > 10 µM

* * *

- System: M14 melanoma
- Assay Summary: NCI tumour cell line growth inhibition, 48 h
We begin with a simple list: items and their reported TGI.

Compound: Cc1c(C(=O)NNc2ccccc2)n2c(=S)[nH]nc2c2ccccc12
Assayed Target: M14 melanoma
TGI: > 100 µM
--
Compound: CCOC(=O)c1csc(NC(=O)CCN2CCCC2)n1
Assayed Target: M14 melanoma
TGI: > 100 µM
--
Compound: CC(C)(C)N=NC(C)(C)N=C=O
Assayed Target: M14 melanoma
TGI: > 100 µM
--
Compound: CC/C=N\N1C(N)=C(C#N)C(C#N)(C#N)C1CC (configuration not stated)
Assayed Target: M14 melanoma
TGI: > 100 µM
--
Compound: COc1c(N2CCN(CN3C(=O)C(=Nc4ccc(S(=O)(=O)Nc5ncccn5)cc4)c4cc(Cl)ccc43)C(C)C2)c(F)cc2c(=O)c(C(=O)O)cn(C3CC3)c12 (configuration not stated)
Assayed Target: M14 melanoma
TGI: 44.7 µM
--
Compound: O=C([C@H](O)[C@@H](O)c1cccc(Cl)c1)C12CC3CC(CC(C3)C1)C2
Assayed Target: M14 melanoma
TGI: 7.16 µM
--
Compound: O=c1c2cc3ccccc3n2c(=O)c2cc3ccccc3n12
Assayed Target: M14 melanoma
TGI: > 100 µM

* * *

- System: A498 renal
- Assay Summary: NCI tumour cell line growth inhibition, 48 h
We begin with a simple list: items and their reported TGI.
Parameter: TGI

Molecule: COc1cc2c(c(OC)c1)[C@H](C)N(Cc1ccccc1)C(C)C2 (stereo partly specified)
Assayed Target: A498 renal
Parameter: TGI
Meas Value: > 100 µM
//
Molecule: O=c1c2ccc(Cl)cc2oc2c(CNc3ccc(S(=O)(=O)Nc4ncccn4)cc3)cccc12
Assayed Target: A498 renal
Parameter: TGI
Meas Value: > 100 µM
//
Molecule: CCC1([N+](=O)[O-])CN(N=O)C1
Assayed Target: A498 renal
Parameter: TGI
Meas Value: > 100 µM
//
Molecule: C=C1C(=O)O[C@H]2C[C@@H]1C(=O)CC(C)CCCC(C)=CCC[C@@]2(C)O (stereo partly specified)
Assayed Target: A498 renal
Parameter: TGI
Meas Value: > 25 µM
//
Molecule: O=c1[nH]c(=O)n(C2CC(O)C(CO)O2)cc1C(F)(F)F (stereo unspecified)
Assayed Target: A498 renal
Parameter: TGI
Meas Value: > 92 µM
//
Molecule: C=C1C[C@@H]2C[C@@H](C)CC(O)[C@]2(CCCN)C1O (stereo partly specified)
Assayed Target: A498 renal
Parameter: TGI
Meas Value: > 100 µM

* * *

- Tested on: IGROV1 ovarian
- Assay Summary: NCI tumour cell line growth inhibition, 48 h
Parameter: TGI

Compound: N#Cc1cccc(N2C(=O)C3C4C=CC(C3C2=O)C2C(=O)N(c3cccc(C#N)c3)C(=O)C42)c1 (configuration not stated)
Assayed Target: IGROV1 ovarian
Meas Value: 49.2 µM

Compound: CC(C)(C)/C(O)=C\c1nc2cc(F)c(F)cc2[nH]c1=O
Assayed Target: IGROV1 ovarian
Meas Value: > 100 µM

Compound: Cc1cc(-c2cc(C(C)(C)C)c(O)c(C(C)(C)C)c2)c(C)cc1-c1cc(C(C)(C)C)c(O)c(C(C)(C)C)c1
Assayed Target: IGROV1 ovarian
Meas Value: > 100 µM

Compound: Cc1cc(-c2ccccc2)nc2oc(=O)n(C)c12
Assayed Target: IGROV1 ovarian
Meas Value: > 100 µM

Compound: CCOC(=O)CN1C(=O)c2cc([N+](=O)[O-])cc3cc([N+](=O)[O-])cc(c23)C1=O
Assayed Target: IGROV1 ovarian
Meas Value: > 100 µM

Compound: C=C1C(OC(C)=O)CC(OC(C)=O)C2(C)C(OC(C)=O)C(OC(C)=O)C3=C(C)C(OC(=O)/C=C/c4ccccc4)CC(C(OC(C)=O)C12)C3(C)C (configuration not stated)
Assayed Target: IGROV1 ovarian
Meas Value: > 100 µM

Compound: O=C1Nc2cc(F)ccc2C1=O
Assayed Target: IGROV1 ovarian
Meas Value: > 100 µM

Compound: COc1cc2cnc3c4cc(OCc5ccccc5)ccc4ccc3c2cc1OC
Assayed Target: IGROV1 ovarian
Meas Value: > 100 µM

Compound: CC1c2[nH]c3ccccc3c2CCN1O (configuration not stated)
Assayed Target: IGROV1 ovarian
Meas Value: > 100 µM

Compound: COc1cc2c(cc1OCc1ccccc1)NC(=O)[C@@H]1CCCN1C2=O
Assayed Target: IGROV1 ovarian
Meas Value: > 100 µM

Compound: CCOC(=O)C1=C(C)NC(c2ccco2)=C(C#N)C1c1cccc([N+](=O)[O-])c1 (configuration not stated)
Assayed Target: IGROV1 ovarian
Meas Value: 3.28 µM

Compound: O=C([O-])CC(=O)[O-].[NH-][C@@H]1CCCC[C@H]1[NH-].[Pt+4]
Assayed Target: IGROV1 ovarian
Meas Value: > 100 µM

Compound: O=c1c2c3c(sc2nc2n1N=C(c1ccc(Br)cc1)CS2)CCCC3
Assayed Target: IGROV1 ovarian
Meas Value: > 100 µM

Compound: Cc1ccc(C)c(COCCOCn2cc(N3CCOCC3)c(=O)[nH]c2=O)c1
Assayed Target: IGROV1 ovarian
Meas Value: > 100 µM

Compound: COc1ccc(OC(C)C(=O)O)c2c(=O)ccccc12 (configuration not stated)
Assayed Target: IGROV1 ovarian
Meas Value: > 100 µM

Compound: O=C(C(=C(I)I)c1ccccc1)c1ccccc1
Assayed Target: IGROV1 ovarian
Meas Value: 44.4 µM

Compound: C[C@@H]1CC[C@@]2(NC1)O[C@H]1C[C@H]3[C@@H]4CC[C@H]5C[C@@H](O)CC[C@]5(C)[C@H]4CC[C@]3(C)[C@H]1[C@@H]2C
Assayed Target: IGROV1 ovarian
Meas Value: > 100 µM

Compound: NCCCCNCCCN1CCOC1=O
Assayed Target: IGROV1 ovarian
Meas Value: > 100 µM

Compound: O=C1c2cc3c(cc2-c2c1c1ccc(Cl)cc1c(=O)n2CCCn1ccnc1)OCO3
Assayed Target: IGROV1 ovarian
Meas Value: > 100 µM

Compound: O/N=C/c1ccc(O)c(O)c1
Assayed Target: IGROV1 ovarian
Meas Value: > 100 µM

Compound: O=C1c2cc3c(cc2CC12Cc1ccc4c(c1C2=O)CCC4)CCC3 (configuration not stated)
Assayed Target: IGROV1 ovarian
Meas Value: > 100 µM

Compound: CCC(CO)Nc1nc2c(c(=O)n(C)c(=O)n2C)n1CCO (configuration not stated)
Assayed Target: IGROV1 ovarian
Meas Value: > 100 µM

Compound: CCCCN(CCCC)CC(C(C)=O)C(c1ccccc1)c1c(O)c2ccccc2oc1=O (configuration not stated)
Assayed Target: IGROV1 ovarian
Meas Value: > 100 µM

Compound: CO[C@@]1(c2ccccc2)O[C@H]2OCCC2[C@H]1c1ccc(Cl)cc1 (some centres not stated)
Assayed Target: IGROV1 ovarian
Meas Value: > 100 µM

Compound: CC(=O)Oc1ccn2nc(C)c(Br)c2c1
Assayed Target: IGROV1 ovarian
Meas Value: > 100 µM

Compound: O=C1C=CC(=O)c2c(O)c(N3CCC[C@@H]3CO)c(Cl)c(O)c21
Assayed Target: IGROV1 ovarian
Meas Value: 3.27 µM

Compound: C=C1C[C@@H]2O[C@H]3[C@H]4[C@@H](C[C@@H](C)[C@@H](OC(C)=O)[C@H]42)[C@@H](C)CO[C@@]3(C)[C@H](OC(=O)CCCCCCC)CC1=O
Assayed Target: IGROV1 ovarian
Meas Value: 48.4 µM

Compound: c1ccc2c(c1)cc1ccc3cccc4ccc2c1c34
Assayed Target: IGROV1 ovarian
Meas Value: > 100 µM

Compound: COc1ccc2c(c1OC)C(=O)N1C2=Cc2c(cc3c(c2OC)OCO3)CC1N(C)C (configuration not stated)
Assayed Target: IGROV1 ovarian
Meas Value: > 100 µM

Compound: CCn1c2ccccc2c2cc(C(=O)c3ccc(C)c4ccccc34)ccc21
Assayed Target: IGROV1 ovarian
Meas Value: > 100 µM

Compound: CNC(=O)CN(CC(=O)O)C(=O)NC
Assayed Target: IGROV1 ovarian
Meas Value: > 100 µM

Compound: CN(C)/N=N/c1nc2c(c(=O)n(C)c(=O)n2C)n1CC1CO1 (configuration not stated)
Assayed Target: IGROV1 ovarian
Meas Value: 29.9 µM

Reference source: PubChem BioAssay (NCI)
